# measurement notes: Peptide stability in simulated gastric fluid (SGF)
# Type: in vitro ADME
# applied conditions: pig, simulated gastric fluid (SGF) with porcine pepsin (3.2 g/L), pH 1.2, 10 µM, 37 °C, porcine pepsin, pH 1.2, 4 h; read-out: SGF (% remaining 4 h)
*1 amine or outer side, *2 acyl side, *3 side chain or, on linkers, in order; H or OH if unused. Where a SMILES comes first, the peptide text is derived from it. Bridges are numbered along the chain shown (N, C = ends). [ ]: non-standard residue; d: D form. 2Nal = N[C@@H](Cc1ccc2ccccc2c1)C(=O)O; AEF = NCCOc1ccc(C[C@H](N)C(=O)O)cc1; 3Pal = N[C@@H](Cc1cccnc1)C(=O)O; Lys(Me) = CNCCCC[C@H](N)C(=O)O; αMeL = CC(C)C[C@](C)(N)C(=O)O; CH2COCH2 = O=C(C[*:1])C[*:2]; NMeK = CN[C@@H](CCCCN)C(=O)O; 3Amb = NCc1cccc(C(=O)O)c1; Dab = NCC[C@H](N)C(=O)O; βAla = NCCC(=O)O
Documented remaining at 4 h, 10 µM across a set of molecules
result type: remaining at 4 h, 10 µM (%)

- CC(C)C[C@]1(C)NC(=O)[C@H](Cc2ccc3ccccc3c2)NC(=O)[C@H](Cc2ccc(OCCN)cc2)NC(=O)[C@@H]2CCNC(=O)CC[C@H](NC(=O)[C@H](CO)NC(=O)Cc3ccc(cc3)CNC(=O)CC[C@@H](C(=O)N[C@@H](CCN)C(=O)N[C@@H](Cc3cccnc3)C(N)=O)NC1=O)C(=O)N[C@@H](Cc1c[nH]c3ccccc13)C(=O)N[C@@H](CCC(N)=O)C(=O)N2 [Ref 122, reference compound]: 90
- CNC(=O)[C@H](Cc1cccnc1)NC(=O)[C@H](CCN)NC(=O)[C@@H]1CCC(=O)NCCCC[C@H]2C(=O)NCCC(=O)N[C@@H](Cc3c[nH]c4ccccc34)C(=O)N[C@@H](CCC(N)=O)C(=O)N[C@@H](CCC(=O)N2C)C(=O)N[C@@H](Cc2ccc(OCCN)cc2)C(=O)N[C@@H](Cc2ccc3ccccc3c2)C(=O)N[C@@](C)(CC(C)C)C(=O)N1 [Compound 80] ([NMeK][βAla]WQE[AEF][2Nal][αMeL]E[Dab][3Pal]-NHMe; lactam 1-9, N-5): 104
- CC[C@H](C)[C@@H]1NC(=O)[C@@H]2CCCCNC(=O)CC[C@@H](C(=O)N[C@H](Cc3cnc[nH]3)C(=O)N[C@@H](Cc3cccnc3)C(=O)NC)NC(=O)[C@](C)(CC(C)C)NC(=O)[C@H](Cc3ccc4ccccc4c3)NC(=O)[C@H](Cc3ccc(OCCN)cc3)NC(=O)[C@H](CCC(=O)N2)NC(=O)[C@H](CCC(N)=O)NC(=O)[C@H](Cc2c[nH]c3ccccc23)NC(=O)[C@H](C(C)C)NC1=O: 95
- CC[C@H](C)[C@@H]1NC(=O)[C@@H]2CCC(=O)N(C)CCCC[C@@H](C(=O)N[C@@H](CCN)C(=O)N[C@@H](Cc3cccnc3)C(=O)NC)NC(=O)[C@](C)(CC(C)C)NC(=O)[C@H](Cc3ccc4ccccc4c3)NC(=O)[C@H](Cc3ccc(OCCN)cc3)NC(=O)[C@H](CCC(=O)N2)NC(=O)[C@H](CCC(N)=O)NC(=O)[C@H](Cc2c[nH]c3ccccc23)NC(=O)[C@H](C(C)C)NC1=O [Compound 74] (EIVWQE[AEF][2Nal][αMeL][Lys(Me)][Dab][3Pal]-NHMe; lactam 1-10, N-6): 92
- CC[C@H](C)[C@H]1CC(=O)N[C@@H](Cc2c[nH]c3ccccc23)C(=O)N[C@@H](CCC(N)=O)C(=O)N[C@H]2CCC(=O)N[C@@H](CCCCNC(=O)CC[C@@H](C(=O)N[C@@H](CCN)C(=O)N[C@@H](Cc3cccnc3)C(=O)NC)NC(=O)[C@](C)(CC(C)C)NC(=O)[C@H](Cc3ccc4ccccc4c3)NC(=O)[C@H](Cc3ccc(OCCN)cc3)NC2=O)C(=O)N1: 105
- CNC(=O)[C@H](Cc1cccnc1)NC(=O)[C@H](CCN)NC(=O)[C@@H]1CCC(=O)NCCCC[C@H]2CC(=O)NCC(=O)N[C@@H](Cc3c[nH]c4ccccc34)C(=O)N[C@@H](CCC(N)=O)C(=O)N[C@@H](CCC(=O)N2)C(=O)N[C@@H](Cc2ccc(OCCN)cc2)C(=O)N[C@@H](Cc2ccc3ccccc3c2)C(=O)N[C@@](C)(CC(C)C)C(=O)N1: 101
- CC(C)C[C@@H]1NC(=O)[C@H](Cc2ccc3ccccc3c2)NC(=O)[C@H](Cc2c[nH]c3ccccc23)NC(=O)[C@@H]2CSCC(=O)CSC[C@H](NC(=O)[C@H](CO)NC(=O)c3cccc(c3)CNC(=O)CC[C@@H](C(=O)N[C@@H](CCCNC(=N)N)C(N)=O)NC1=O)C(=O)N[C@@H](Cc1c[nH]c3ccccc13)C(=O)N[C@@H](CCC(N)=O)C(=O)N2 [Ref 37, reference compound] ([3Amb]SCWQCW[2Nal]LER-NH2; linker 3-6 via CH2COCH2; lactam N-10): 1
- CC[C@H](C)[C@@H]1NC(=O)[C@@H]2CCCCNC(=O)CC[C@@H](C(=O)N[C@@H](Cc3cn(C)cn3)C(=O)N[C@@H](Cc3cccnc3)C(=O)NC)NC(=O)[C@](C)(CC(C)C)NC(=O)[C@H](Cc3ccc4ccccc4c3)NC(=O)[C@H](Cc3ccc(OCCN)cc3)NC(=O)[C@H](CCC(=O)N2)NC(=O)[C@H](CCC(N)=O)NC(=O)[C@H](Cc2c[nH]c3ccccc23)NC(=O)[C@H](C(C)C)NC1=O: 99
- CNC(=O)[C@H](Cc1cccnc1)NC(=O)[C@H](CCN)NC(=O)[C@@H]1CCC(=O)NCCCC[C@@H]2NC(=O)CC[C@H](NC(=O)[C@H](CCC(N)=O)NC(=O)[C@H](Cc3c[nH]c4ccccc34)NC(=O)CCNC2=O)C(=O)N[C@@H](Cc2ccccn2)C(=O)N[C@@H](Cc2ccc3ccccc3c2)C(=O)N[C@@](C)(CC(C)C)C(=O)N1: 103
- CNC(=O)[C@H](Cc1cccnc1)NC(=O)[C@H](CCN)NC(=O)[C@@H]1CCC(=O)NCCCC[C@@H]2NC(=O)CC[C@H](NC(=O)[C@H](CCC(N)=O)NC(=O)[C@H](Cc3c[nH]c4ccccc34)NC(=O)CCNC2=O)C(=O)N[C@@H](Cc2ccncc2)C(=O)N[C@@H](Cc2ccc3ccccc3c2)C(=O)N[C@@](C)(CC(C)C)C(=O)N1: 110
